Ref: the supplement of paper PMC9694430

thermal shift delta Tm: recorded values
- Tested on: LOC_OS07G06570-cb004
- ASSAY NAME: thermal shift delta Tm vs DMSO control; higher = stronger stabilization (binding);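 also: purified Escherichia coli-expressed rice kinase domain construct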
- CONDITION: 12.5 µM; protein concentration 2 µM
Counter-ions that a name gives are not always drawn.
Could you give me the number in °C? Just the number is fine.

Reference set (10 entries):
> print(dat)
                                    compound         target.system  measurement.units  recorded.measurement
 1  O=C1Nc2ccc(CN3C(=O)CSC3=O)cc2/C1=C/c1cc(CN2CCOCC2)c[nH]1  LOC_OS07G06570-cb004                 °C                  1.86
 2  FC(F)(F)c1ccc(Nc2nc3ccc(Oc4ccnc(-c5ncc(C(F)(F)F)[nH]5)c4)cc3[nH]2)cc1  LOC_OS07G06570-cb004                 °C                  1.65
 3  O=C1NC(=O)/C(=C/c2ccc3nccc(-c4ccncc4)c3c2)S1  LOC_OS07G06570-cb004                 °C                  1.03
 4  CC(C)n1nc(-c2cc3cc(O)ccc3[nH]2)c2c(N)ncnc21  LOC_OS07G06570-cb004                 °C                  0.62
 5             Nc1nc(N)c(N=O)c(OCC2CCCCC2)n1  LOC_OS07G06570-cb004                 °C                  1.43
 6  CNc1nc(-c2ccc3c(N)n[nH]c3c2)cc(N2C[C@@H](C(=O)NC3CCCCC3)CC[C@H]2C)n1  LOC_OS07G06570-cb004                 °C                  1.92
 7  CN1c2ccccc2C(=O)Nc2cnc(Nc3ccc(N4CCC(O)CC4)cc3)nc21  LOC_OS07G06570-cb004                 °C                  0.89
 8  Cc1c[nH]c(/C=C2\C(=O)Nc3ccccc32)c1CCC(=O)O  LOC_OS07G06570-cb004                 °C                  0.84
 9  Cc1[nH]nc2ccc(-c3cncc(OC[C@@H](N)Cc4ccccc4)c3)cc12  LOC_OS07G06570-cb004                 °C                  0.93
10  N#Cc1ccc(-c2c(-c3ncn[nH]3)sc(N3CCOCC3)c2C#N)c(F)c1  LOC_OS07G06570-cb004                 °C                  1.08

Query :: Reported thermal shift delta Tm, compound `N#Cc1cccc(-c2c[nH]c3ncnc(N4CCOCC4)c23)c1` : ____
Result :: 0.63

Query :: Reported thermal shift delta Tm, compound CN1CCN(C2CCN(C(=O)Nc3cc(Oc4ccc(NC(=O)C5(C(=O)Nc6ccc(F)cc6)CC5)c(F)c4)ccn3)CC2)CC1 [Golvatinib (E7050)] : ____
Result :: 1.02

Query :: Reported thermal shift delta Tm, compound `N#CC1(c2ccc(NC(=O)c3cccnc3NCc3ccncc3)cc2)CCCC1` : ____
Result :: 1.2

Query :: Reported thermal shift delta Tm, compound `O=c1c(O)c(-c2cc(O)c(O)c(O)c2)oc2cc(O)cc(O)c12` : ____
Result :: -1.03

Query :: Reported thermal shift delta Tm, compound `COc1ccc(-c2cc3nccn3c(Nc3ncccc3C(N)=O)n2)cc1OC` : ____
Result :: 0.73

Query :: Reported thermal shift delta Tm, compound Cc1ccc(NC(=O)c2ccc(CN3CCN(C)CC3)cc2)cc1Nc1nccc(-c2cccnc2)n1 [Imatinib Mesylate (STI571)] : ____
Result :: 1.07

Query :: Reported thermal shift delta Tm, compound `CCCS(=O)(=O)Nc1ccc(F)c(C(=O)c2c[nH]c3ncc(Cl)cc23)c1F` : ____
Result :: 0.7

Query :: Reported thermal shift delta Tm, compound `CN(C)CCCn1cc(C2=C(c3c[nH]c4ccccc34)C(=O)NC2=O)c2ccccc21` : ____
Result :: 0.94

Query :: Reported thermal shift delta Tm, compound `CCn1c(=O)c(-c2cc[nH]n2)cc2c(C)nc(N)nc21` : ____
Result :: 0.51

---

- Test system: LOC_OS01G60700-cb002
- ASSAY NAME: thermal shift delta Tm vs DMSO control; higher = stronger stabilization (binding)
- CONDITION: 12.5 µM; protein concentration 2 µM
MEASURED PROPERTY: thermal shift delta Tm (°C)
Could you give me the number in °C? Just the number is fine.

Query :: Reported thermal shift delta Tm, compound `CC(C)=CC[C@@H](O)C1=CC(=O)c2c(O)ccc(O)c2C1=O` : ____
Result :: 3.41

Query :: Reported thermal shift delta Tm, compound `CNc1nc(Nc2cn(C(C)(C)C#N)nc2C)ncc1C(F)(F)F` : ____
Result :: 1.27

---

- Tested on: LOC_OS01G70970-cb002
- ASSAY NAME: thermal shift delta Tm vs DMSO control; higher = stronger stabilization (binding)
- CONDITION: 12.5 µM; protein concentration 2 µM
Use 0.4 °C as the dividing line for thermal shift delta Tm, with the line itself on the Satisfied side and lower values as Not satisfied.

Examples from the recorded data:
> print(dat)
                                   compound    group.label
1  OC1CCC(Oc2cccc3cnc(Nc4ccc5nc[nH]c5c4)nc23)CC1 (stereo not drawn)      Satisfied
2  O=C(O)c1ccc2c(c1)nc(Nc1cccc(Cl)c1)c1ccncc12  Not satisfied
3  Cn1c(Nc2ccc(C(F)(F)F)cc2)nc2cc(Oc3ccnc(-c4ncc(C(F)(F)F)[nH]4)c3)ccc21      Satisfied
4  CC1(C)OC(=O)C=C[C@]2(C)[C@H]3CC[C@@]4(C)[C@H](c5ccoc5)OC(=O)[C@H]5O[C@]54[C@]3(C)C(=O)C[C@@H]12  Not satisfied
5  C=CC(=O)Nc1cccc(Oc2nc(Nc3ccc(N4CCN(C)CC4)cc3OC)ncc2Cl)c1      Satisfied

Next item in the queue.
Query :: Hi team, for `NC(=O)c1ncn([C@@H]2O[C@H](CO)[C@@H](O)[C@H]2O)c1N` , is the recorded thermal shift delta Tm at or above 0.4 °C?
Result :: Not satisfied

---

- Test system: LOC_OS04G57630-cb004
- ASSAY NAME: thermal shift delta Tm vs DMSO control; higher = stronger stabilization (binding)
- CONDITION: 12.5 µM; protein concentration 2 µM
MEASURED PROPERTY: thermal shift delta Tm (°C)
Could you give me the number in °C? Just the number is fine.

Reference set (3 entries):
> print(dat)
                                   compound         target.system  recorded.measurement
1  Nc1ccc(C(=O)Nc2cccc(-c3nc(N4CCOCC4)c4oc5ncccc5c4n3)c2)cn1  LOC_OS04G57630-cb004                  1.19
2  O=C(c1ccc(Nc2nccc(-c3cc4ccccc4s3)n2)cc1)N1CCC(N2CCCC2)CC1  LOC_OS04G57630-cb004                  5.63
3            N#Cc1ccc2ncnc(NCCc3ccccc3)c2c1  LOC_OS04G57630-cb004                  0.34

Query :: Reported thermal shift delta Tm, compound `Cc1ncc(-c2ccnc(Nc3ccc(S(C)(=O)=O)cc3)n2)n1C(C)C` : ____
Result :: 1.43

Query :: Reported thermal shift delta Tm, compound `C[C@@H]1CN(CC(=O)Nc2ccc3c(c2)Cc2cccc(-c4cc(=O)cc(N5CCOCC5)o4)c2S3)C[C@H](C)O1` : ____
Result :: -0.04

---

- System: LOC_OS01G48390-cb002
- ASSAY NAME: thermal shift delta Tm vs DMSO control; higher = stronger stabilization (binding)
- CONDITION: 12.5 µM; protein concentration 2 µM
Where a name gives a salt, the structure may show the parent alone.
MEASURED PROPERTY: thermal shift delta Tm (°C)
Could you give me the number in °C? Just the number is fine.

Reference set (4 entries):
> print(dat)
                                   compound  measurement.units  recorded.measurement
1  Cc1ccc([N+](=O)[O-])cc1S(=O)(=O)N(C)/N=C/c1cnc2ccc(Br)cn12                 °C                   1.1
2  Cc1cnc(Nc2ccc(N3CCN(C)CC3)cc2)nc1Nc1cccc(S(=O)(=O)NC(C)(C)C)c1                 °C                  1.61
3  CN1CC[C@H](c2c(O)cc(O)c3c(=O)cc(-c4ccccc4Cl)oc23)[C@H](O)C1 [Flavopiridol HCl]                 °C                  0.58
4  COc1cc2ncc(-c3ccccc3)nc2cc1OC [Tyrphostin AG 1296]                 °C                  0.55

Here is the next item to consider.
Query :: Reported thermal shift delta Tm, compound c1nc2c(NC3CCCCC3)nc(Nc3ccc(N4CCOCC4)cc3)nc2[nH]1 [Reversine] : ____
Result :: -0.29
